- measurement-target: mTOR (Homo sapiens)
- Construct: FLAG; made in house
- Sequence (P42345 1362-2549): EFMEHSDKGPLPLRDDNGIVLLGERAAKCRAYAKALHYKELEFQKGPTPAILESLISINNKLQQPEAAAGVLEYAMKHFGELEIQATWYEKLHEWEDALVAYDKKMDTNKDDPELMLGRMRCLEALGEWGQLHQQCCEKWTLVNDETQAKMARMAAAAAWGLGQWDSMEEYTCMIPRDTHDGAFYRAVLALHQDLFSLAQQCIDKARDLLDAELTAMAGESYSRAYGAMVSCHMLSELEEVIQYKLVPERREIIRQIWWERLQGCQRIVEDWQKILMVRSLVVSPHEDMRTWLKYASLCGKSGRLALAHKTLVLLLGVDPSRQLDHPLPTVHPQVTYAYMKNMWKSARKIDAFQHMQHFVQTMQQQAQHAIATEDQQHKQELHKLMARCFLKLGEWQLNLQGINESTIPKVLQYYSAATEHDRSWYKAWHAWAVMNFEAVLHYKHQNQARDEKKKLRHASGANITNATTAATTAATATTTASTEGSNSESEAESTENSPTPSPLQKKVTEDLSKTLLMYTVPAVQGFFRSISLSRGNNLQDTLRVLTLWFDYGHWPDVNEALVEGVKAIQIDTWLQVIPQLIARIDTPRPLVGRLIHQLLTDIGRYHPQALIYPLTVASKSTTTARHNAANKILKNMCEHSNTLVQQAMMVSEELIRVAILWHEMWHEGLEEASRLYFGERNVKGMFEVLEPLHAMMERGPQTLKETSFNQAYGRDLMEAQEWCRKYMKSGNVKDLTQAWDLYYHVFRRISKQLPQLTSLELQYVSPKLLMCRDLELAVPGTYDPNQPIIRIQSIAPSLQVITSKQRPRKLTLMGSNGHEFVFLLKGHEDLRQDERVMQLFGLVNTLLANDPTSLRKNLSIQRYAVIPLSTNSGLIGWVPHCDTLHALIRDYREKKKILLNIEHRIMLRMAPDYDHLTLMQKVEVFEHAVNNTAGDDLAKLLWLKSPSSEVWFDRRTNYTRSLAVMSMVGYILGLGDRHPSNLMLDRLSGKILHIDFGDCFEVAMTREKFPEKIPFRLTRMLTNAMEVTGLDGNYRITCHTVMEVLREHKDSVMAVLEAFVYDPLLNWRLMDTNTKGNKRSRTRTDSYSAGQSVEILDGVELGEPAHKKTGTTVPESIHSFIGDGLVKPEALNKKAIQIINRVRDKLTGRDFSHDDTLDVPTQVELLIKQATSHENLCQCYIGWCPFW
- assay-remarks: mTOR Kinase Assay (Echo)
- Format: biochemical
endpoint-label: IC50 (nM)

See these solved cases before continuing.
| compound | measurement-target | IC50 (nM) |
| --- | --- | --- |
| C[C@H]1COCCN1c1cc(C2(S(=O)(=O)c3ccccn3)CCC2)nc(-c2ccc(NC(=O)Nc3cnn(C)c3)cc2)n1 [Example 36aj] | mTOR (Homo sapiens) | 2.58 |
| C[C@H]1COCCN1c1cc(C2(S(C)(=O)=O)CC2)nc(-c2ccc(NC(=O)Nc3cnn(C)c3)c(F)c2)n1 [Example 52d] | mTOR (Homo sapiens) | 10.7 |
| Cc1csc(S(=O)(=O)C2(c3cc(N4CCOC[C@@H]4C)nc(-c4ccc(NC(=O)NC(C)C)cc4)n3)CC2)n1 [Example 25d] | mTOR (Homo sapiens) | 1.57 |

(1) C[C@H]1COCCN1c1cc(C2(S(=O)(=O)c3ccccc3)CC2)nc(-c2ccc(NC(=O)NCCCO)cc2)n1 [Example 36bl]
(2) CCNC(=O)Nc1ccc(-c2nc(N3CCOC[C@@H]3C)cc(C3(S(=O)(=O)CCNC(C)=O)CC3)n2)cc1 [Example 45]
(3) C[C@H]1COCCN1c1cc(C2(S(=O)(=O)C(C)(C)C)CC2)nc(-c2ccc(NC(=O)NC3CCC3)cc2)n1 [Example 18a]
(4) C[C@H]1COCCN1c1cc(C2(S(C)(=O)=O)CC2)nc(-c2ccc(NC(=O)Nc3ncco3)cc2)n1 [Example 36ba]
Q. Put the items in sequence by IC50, from largest down. Thanks in advance for listing the labels in the requested order.
A. 2, 3, 4, 1
